These measurements were taken from BigSolDB 2.1.

# measurement parameters: in THF, 318.15 K

| mol smiles | solubility (mole fraction) |
| --- | --- |
| OC[C@H]1O[C@@H](Oc2c(O)cc(O)cc2/C=C/c2ccc(O)cc2)[C@H](O)[C@@H](O)[C@@H]1O | 0.0545 |

* * *

# measurement parameters: in ethanol, 283.15 K
property: solubility (mole fraction)

| mol smiles | property | numeric result |
| --- | --- | --- |
| OC[C@H]1O[C@@H](Oc2c(O)cc(O)cc2/C=C/c2ccc(O)cc2)[C@H](O)[C@@H](O)[C@@H]1O | solubility (mole fraction) | 0.00881 |

* * *

# measurement parameters: in acetone, 318.15 K
property: solubility (mole fraction)

| mol smiles | numeric result |
| --- | --- |
| OC[C@H]1O[C@@H](Oc2c(O)cc(O)cc2/C=C/c2ccc(O)cc2)[C@H](O)[C@@H](O)[C@@H]1O | 0.052 |
